# TARGET_ENTITY: LMP7 (Homo sapiens, UniProt P28062)
# Construct: using MOLT-4 cell lysate as the enzyme source of LMP7; endogenous in cells; host or cells: MOLT-4 (human acute lymphoblastic leukemia cells)
# PROTOCOL_DESCRIPTION: Cytological inhibitory activity on LMP7 in MOLT-4 cells
# Assay type: cell-based
# CONDITION_PARAMETERS: incubation for 2 hours with compound, read-out: Cytological activity data LMP7 Activity (MOLT-4Cell)
Form field: IC50 (one value per entry).
// note: answer is a bare numeric in nM

Study these solved cases before continuing.
>>> numeric_value("O=C1COB([C@H](Cc2coc3ccccc23)NC(=O)C(=O)Nc2cnccn2)O1")
1.15
>>> numeric_value("CC1(C)[C@@H]2C[C@H]3OB([C@H](Cc4coc5ccccc45)NC(=O)C(=O)Nc4ncc(Cl)s4)O[C@@]3(C)[C@H]1C2")
13.6
>>> numeric_value("CC1(C)OB([C@H](Cc2coc3ccccc23)NC(=O)C(=O)Nc2cnccn2)OC1(C)C")
0.69

Using the record for "O=C(Nc1cc(Cl)ccc1Cl)C(=O)N[C@@H](Cc1coc2ccccc12)B(O)O" , report its IC50.
3.92

* * *

Form field: IC50 (one value per entry).
# TARGET_ENTITY: β5 (Homo sapiens, UniProt P28074)
# Construct: using HEK-293 cell lysate as the enzyme source of D5; endogenous in cells
# PROTOCOL_DESCRIPTION: Enzymatic inhibitory activity on β5 (HEK-293 cell lysate, Ac-WLA-AMC substrate)
# CONDITION_PARAMETERS: 1 hour pre-incubation
Answer with the figure and its unit, nothing else.

Study these solved cases before continuing.
>>> result("CN(C)c1ccnc(NC(=O)C(=O)N[C@@H](Cc2coc3ccccc23)B(O)O)c1")
"357 nM"
>>> result("O=C(NCC1CCCO1)C(=O)N[C@@H](Cc1coc2ccccc12)B(O)O (some centres unmarked)")
"22.2 nM"
>>> result("CC1(C)[C@@H]2C[C@H]3OB([C@H](Cc4coc5ccccc45)NC(=O)C(=O)Nc4ccccc4F)O[C@@]3(C)[C@H]1C2")
"32.4 nM"
>>> result("O=C(Nc1cccc2c1OCCO2)C(=O)N[C@@H](Cc1coc2ccccc12)B(O)O")
"24.6 nM"
>>> result("CC1CC(C)(C)OB([C@H](Cc2coc3ccccc23)NC(=O)C(=O)Nc2cnccn2)O1 (some centres unmarked)")
"38.2 nM"
>>> result("O=C(Nc1ccc(F)cc1F)C(=O)N[C@@H](Cc1coc2ccccc12)B(O)O")
"54.6 nM"

Using the record for "O=C(Nc1cccnc1)C(=O)N[C@@H](Cc1coc2ccccc12)B(O)O" , report its IC50.
29 nM

Next molecule: "O=C(NC1CCOCC1)C(=O)N[C@@H](Cc1coc2ccccc12)B(O)O"
123 nM

* * *

# TARGET_ENTITY: LMP7 (Homo sapiens)
# Construct: using MOLT-4 cell lysate as the enzyme source of LMP7; endogenous in cells; host or cells: MOLT-4 (human acute lymphoblastic leukemia cells)
# PROTOCOL_DESCRIPTION: Enzymatic inhibitory activity on LMP7 (MOLT-4 cell lysate, Ac-ANW-AMC substrate)
# Format: biochemical
# CONDITION_PARAMETERS: 1 hour pre-incubation
MEASURED_PARAMETER: pIC50
Friendly reminder that pIC50 comes from taking -log10 of the concentration in mol/L.

Study these solved cases before continuing.
>>> numeric_value("O=C(Nc1cnc2ccccc2n1)C(=O)N[C@@H](Cc1coc2ccccc12)B(O)O")
8.51
>>> numeric_value("O=C(Nc1cccc2c1OCCO2)C(=O)N[C@@H](Cc1coc2ccccc12)B(O)O")
8.25
>>> numeric_value("CC1(C)[C@@H]2C[C@H]3OB([C@H](Cc4coc5ccccc45)NC(=O)C(=O)Nc4ncc(F)s4)O[C@@]3(C)[C@H]1C2")
8.51
>>> numeric_value("CC1CC(C)(C)OB([C@H](Cc2coc3ccccc23)NC(=O)C(=O)Nc2cnccn2)O1 (stereo partly shown)")
8.80
>>> numeric_value("CC1(C)CC(C)(C)OB([C@H](Cc2coc3ccccc23)NC(=O)C(=O)Nc2cnccn2)O1")
8.84
>>> numeric_value("CC1(C)[C@@H]2C[C@H]3OB([C@H](Cc4coc5ccccc45)NC(=O)C(=O)N[C@@H]4C[C@H]5CC[C@@H]4O5)O[C@@]3(C)[C@H]1C2")
8.51
>>> numeric_value("O=C(N[C@@H](Cc1coc2ccccc12)B(O)O)C(=O)N1CCCC(F)(F)C1")
8.13
>>> numeric_value("O=C(Nc1nccs1)C(=O)N[C@@H](Cc1coc2ccccc12)B(O)O")
8.50
>>> numeric_value("O=C(O)CC1(CC(=O)O)OB([C@H](Cc2coc3ccccc23)NC(=O)C(=O)Nc2cnccn2)OC1=O")
8.62
>>> numeric_value("O=C(Nc1ccccn1)C(=O)N[C@@H](Cc1coc2ccccc12)B(O)O")
8.02

Using the record for "O=C(Nc1cccnc1)C(=O)N[C@@H](Cc1coc2ccccc12)B(O)O" , report its pIC50.
8.54

Next compound: "CC1(C)[C@@H]2C[C@H]3OB([C@H](Cc4coc5ccccc45)NC(=O)C(=O)Nc4ncc(Cl)s4)O[C@@]3(C)[C@H]1C2"
8.70

Next compound: CC1COB([C@H](Cc2coc3ccccc23)NC(=O)C(=O)Nc2cnccn2)O1 (stereo partly shown)
8.91

Next compound: "O=C(Nc1cc(Cl)ccc1Cl)C(=O)N[C@@H](Cc1coc2ccccc12)B(O)O"
8.20

Next compound: "CC1(C)OB([C@H](Cc2coc3ccccc23)NC(=O)C(=O)Nc2cnccn2)OC1(C)C"
8.95

Next compound: "Cn1ccnc1NC(=O)C(=O)N[C@@H](Cc1coc2ccccc12)B(O)O"
8.23

* * *

Form field: pIC50 (one value per entry).
# TARGET_ENTITY: β5 (Homo sapiens, UniProt P28074)
# Construct: using HEK-293 cell lysate as the enzyme source of D5; endogenous in cells
# PROTOCOL_DESCRIPTION: Enzymatic inhibitory activity on β5 (HEK-293 cell lysate, Ac-WLA-AMC substrate)
# CONDITION_PARAMETERS: 1 hour pre-incubation
Friendly reminder that pIC50 comes from taking -log10 of the concentration in mol/L.

>>> numeric_value("CC1(C)[C@@H]2C[C@H]3OB([C@H](Cc4coc5ccccc45)NC(=O)C(=O)Nc4ncc(F)s4)O[C@@]3(C)[C@H]1C2 [Ex. 33]")
7.41

Here's the next entry for you.
Using the record for COc1ncccc1NC(=O)C(=O)N[C@@H](Cc1coc2ccccc12)B(O)O [Ex. 45] , report its pIC50.
7.01

* * *

Form field: half-life (one value per entry).
# PROTOCOL_DESCRIPTION: Animal pharmacokinetic study in rats, single gavage
# Type: in vivo
# CONDITION_PARAMETERS: rat, po; male rats, single gavage 5 mg/kg, plasma
// note: answer is a bare numeric in h

>>> numeric_value("O=C(N[C@@H](Cc1coc2ccccc12)B(O)O)C(=O)N1CCOCC1 [Ex. 5]")
4.2
>>> numeric_value("O=C(Nc1cnccn1)C(=O)N[C@@H](Cc1coc2ccccc12)B(O)O [Ex. 9]")
5.58
>>> numeric_value("Cc1cnc(NC(=O)C(=O)N[C@@H](Cc2coc3ccccc23)B(O)O)s1 [Ex. 32]")
25.3
>>> numeric_value("O=C(Nc1nccs1)C(=O)N[C@@H](Cc1coc2ccccc12)B(O)O [Ex. 25]")
14.4
>>> numeric_value("O=C(Nc1ccccn1)C(=O)N[C@@H](Cc1coc2ccccc12)B(O)O [Ex. 12]")
14.7
>>> numeric_value("O=C(Nc1nc2ccccc2s1)C(=O)N[C@@H](Cc1coc2ccccc12)B(O)O [Ex. 27]")
5.17

Here's the next entry for you.
Using the record for O=C(Nc1cc(Cl)ccn1)C(=O)N[C@@H](Cc1coc2ccccc12)B(O)O [Ex. 49] , report its half-life.
16.4

* * *

# TARGET_ENTITY: LMP7 (Homo sapiens)
# Construct: using MOLT-4 cell lysate as the enzyme source of LMP7; endogenous in cells; host or cells: MOLT-4 (human acute lymphoblastic leukemia cells)
# PROTOCOL_DESCRIPTION: Cytological inhibitory activity on LMP7 in MOLT-4 cells
# Format: cell-based
# CONDITION_PARAMETERS: incubation for 2 hours with compound, read-out: Cytological activity data LMP7 Activity (MOLT-4Cell)
# Description: MOLT-4 are human acute lymphoblastic leukemia cells and have been identified as cells with high expression of LMP7. […] After 2 min. of centrifuge at 2000 rpm, the lysate was transferred from the 24-well plate to a 96-well plate, and centrifuged at 2000 rpm, 4° C., for 15 min. […] Protein quantification was performed using the BCA method (Thermo, #23225). […]
MEASURED_PARAMETER: pIC50
Friendly reminder that pIC50 comes from taking -log10 of the concentration in mol/L.

>>> numeric_value("Cn1cccc(NC(=O)C(=O)N[C@@H](Cc2coc3ccccc23)B(O)O)c1=O")
8.26
>>> numeric_value("O=C(Nc1ccc(F)cc1F)C(=O)N[C@@H](Cc1coc2ccccc12)B(O)O")
8.16
>>> numeric_value("Cc1cnc(NC(=O)C(=O)N[C@@H](Cc2coc3ccccc23)B(O)O)cn1")
8.64
>>> numeric_value("CN(C)c1ccnc(NC(=O)C(=O)N[C@@H](Cc2coc3ccccc23)B(O)O)c1")
8.10
>>> numeric_value("O=C(Nc1cccnc1Cl)C(=O)N[C@@H](Cc1coc2ccccc12)B(O)O")
8.75
>>> numeric_value("O=C(Nc1cncnc1)C(=O)N[C@@H](Cc1coc2ccccc12)B(O)O")
7.95
>>> numeric_value("O=C(Nc1ncc(F)s1)C(=O)N[C@@H](Cc1coc2ccccc12)B(O)O")
7.53
>>> numeric_value("O=C(Nc1nccs1)C(=O)N[C@@H](Cc1coc2ccccc12)B(O)O")
8.39
>>> numeric_value("CC1(C)[C@@H]2C[C@H]3OB([C@H](Cc4coc5ccccc45)NC(=O)C(=O)Nc4ccccn4)O[C@@]3(C)[C@H]1C2")
8.78
>>> numeric_value("CC1CC(C)(C)OB([C@H](Cc2coc3ccccc23)NC(=O)C(=O)Nc2cnccn2)O1 (some centres unmarked)")
9.10

Using the record for "CC1(C)CC(C)(C)OB([C@H](Cc2coc3ccccc23)NC(=O)C(=O)Nc2cnccn2)O1" , report its pIC50.
9.01

Next molecule: "O=C(Nc1cccnc1)C(=O)N[C@@H](Cc1coc2ccccc12)B(O)O"
8.46

Next molecule: "COC(=O)C(=O)N[C@@H](Cc1coc2ccccc12)B(O)O"
7.57

Source listed as patent US20240425529A1.
